- Test system: 3D7
- EXPERIMENT DESCRIPTION: Cross-resistance EC50 assay, 3D7 parent / sensitive strain
- Assay type: cell-based
- RUN CONDITIONS: Plasmodium falciparum; hypoxanthine 48-hour assay; synchronized parasites; 96-well format; strain 3D7 (parent); read-out: 3D7 (PARENT) Average EC50
EC50 less than 0.6 µM is condition met; EC50 greater than or equal to 0.6 µM is condition not met.

Some entries whose results are on file:
| COMPOUND | TARGET OR SYSTEM | CATEGORY LABEL |
| --- | --- | --- |
| COCCNCC(O)Cn1c2ccc(Cl)cc2c2cc(Cl)ccc21 (centres unmarked) [MMV019017] | 3D7 | condition not met |
| CCCCCCCN(Cc1ccc(OC(C)(C)C(=O)OCC)cc1)C(=O)Nc1ccc(Cl)cc1OCC [MMV021735] | 3D7 | condition met |

Hello, is EC50 of the following compound strictly smaller than 0.6 µM? Nc1ncc(-c2cn[nH]c2)cc1-c1nc2ccc(F)cc2[nH]1 [MMV023367]
condition met

In the record for COc1ccc(C(=O)C2CC2c2ccc(Cl)cc2)cc1 (centres unmarked) [MMV665924] , is EC50 less than 0.6 µM?
condition not met

Decide: EC50 of OC(CNC1CCCCC1)Cn1c2ccccc2c2ccccc21 (centres unmarked) [MMV009063] strictly below 0.6 µM?
condition not met

Determine if COc1ccc(N2CCN(C(CNC(=O)C3CCCCC3)c3ccc4c(c3)OCO4)CC2)cc1 (centres unmarked) [MMV019662] shows EC50 strictly lower than 0.6 µM.
condition met

Does this compound meet the criterion EC50 < 0.6 µM? Brc1ccc(Nc2nc3ccccc3nc2Nc2ccc(Br)cc2)cc1 [MMV007224]
condition met

A record lists CCN(CC)CCn1c(=N)n(CC(O)c2ccc(Cl)c(Cl)c2)c2ccccc21.Cl (centres unmarked) [MMV000248] . Is its EC50 below 0.6 µM?
condition met

Quick check: does COc1ccc(NC(=O)N2CCCCN3[C@H](CO)[C@H](c4ccc(C#Cc5ccccc5)cc4)[C@@H]3C2)cc1 [BRD3444] have EC50 under 0.6 µM?
condition met
